# Test system: SK-MEL-2 melanoma
# assayProtocol: NCI-60 one-dose screen, 48 h (100 = growth as untreated, 0 = no growth, -100 = all killed)
# experimentalConditions: 10 µM unless noted
This is part of a sample that, as a whole, favours compounds with a hit. Of some 83,000 tested, about 20% had one in any assay. The source made the active and inactive calls. Rule for the calls: active = growth percent below 10; inactive = the rest.
readoutKind: growth

Past entries and their recorded results:
[[record]]
molecule = "O=C(/C=C1\\C(=O)N(Cc2ccc([N+](=O)[O-])cc2)c2ccccc21)c1ccc(OCCN2CCCC2)cc1"
readoutkind = "growth"
measurement = "93.7% (inactive)"

[[record]]
molecule = "CCc1ccc(C(=Nc2ccc(N(C)C(=O)CN3CCN(C)CC3)cc2)c2c(O)[nH]c3ccc(C(=O)OC)cc23)cc1"
readoutkind = "growth"
measurement = "-55.4% (active)"


Would you mind giving growth for every molecule in the list below?
1. CCOP1(=O)CC(C)=C(Cl)C(P(=O)(O)O)C1 (stereo not given)
2. COc1ccc(/C=N/c2cc(C(C)(C)C)nn2-c2ccccc2)cc1
3. CC1=C(C)C(=O)C(C(C)C2=C(C)C(=O)C(C)=C(C)C2=O)=C(C)C1=O
4. CCCC(C)c1cc(Cc2cc(Cl)cc(Cl)c2O)c(O)c(Cc2cc(Cl)cc(Cl)c2O)c1 (stereo not given)
5. Cn1c2ccccc2c2ccccc21
6. COc1ccc(-c2nc(SCC(C)C)nc(Nc3ccc(C)cc3)c2C#N)cc1
7. Cc1ccc(C(=O)NN)cc1
8. CC(=O)N(N=O)c1ccc([N+](=O)[O-])cc1Cl

1. 109% (inactive)
2. 124% (inactive)
3. 97.8% (inactive)
4. 1.41% (active)
5. 99.4% (inactive)
6. 107% (inactive)
7. 119% (inactive)
8. 73.1% (inactive)

Kindly give each listed record's growth.
1. O=C(/C(Br)=C/c1ccccc1)c1ccccc1
2. Cc1c([C@H](C(Cl)Cl)[C@H](O)[C@H]2C[C@H](C)C(=O)O2)ccc2c1C(=O)[C@H]1[C@H]2C[C@@H](Br)[C@@]23O[C@@H](CO[C@H]2O)CC13C (stereo not given in full)
3. CCC(C)(CC)c1ccc(O)c(C)c1
4. Cc1c(C(N)=O)sc2c1c(=O)n(Cc1ccccc1)c1nnc(S(C)(=O)=O)n21
5. C[C@]12C=CC(=O)C=C1[C@@H](F)C[C@@H]1[C@@H]2[C@@H](O)C[C@@]2(C)[C@H]1CC[C@]2(O)C(=O)CO
6. CC(=O)NCCN
7. NC(N)=Nc1ccc(/C=C2\C=Cc3ccccc32)cc1

1. 15.2% (inactive)
2. 74% (inactive)
3. 82.2% (inactive)
4. 80.6% (inactive)
5. 107% (inactive)
6. 115% (inactive)
7. 85.6% (inactive)
